test system: P. berghei ANKA GFP-Luc-SMcon sporozoites; assay: P. berghei-luciferase liver stage bioluminescence assay (causal prophylactic mode) in HepG2-CD81 cells; assay type: cell-based, Plasmodium berghei; conditions: Plasmodium berghei, HepG2, 48 h, read-out: P. berghei sporozoites IC50, liver stage, HepG2 host cells, luciferase after 48 h, ±SD
MEASURED ENDPOINT: IC50 (nM)
Numbers only; they are read as nM.

Prompt: Give IC50 (P. berghei ANKA GFP-Luc-SMcon sporozoites) of the following molecule: `C[C@H]1[C@H](N2CCN(C(=O)Nc3ccc(F)cc3)CC2)O[C@@H]2O[C@@]3(C)CC[C@H]4[C@H](C)CC[C@@H]1[C@@]24OO3`
Response: 106

Recorded values, source paper PMC6967409.
